Attribution: paper PMC11480844

B1: H2-Kb / B2 (parent)
chain 1: GEQVEQRPPHLSVREGDSAVIICTYTDPNSYYFFWYKQEPGAGLQLLMKVFSSTEINEGQGFTVLLNKKDKQLSLNLTAAHPGDSAVYFCAVSQMSNYNVLYFGSGTKLTVEP
chain 2: EAAVTQSPRNKVAVTGGKVTLSCNQTNNHNNMYWYRQDTGHGLRLIHYSYGAGSTEKGDIPDGYKASRPSQENFSLILELATPSQTSVYFCASGTGGSGQLYFGEGSKLTVL
chain 3: not shown
chain 4: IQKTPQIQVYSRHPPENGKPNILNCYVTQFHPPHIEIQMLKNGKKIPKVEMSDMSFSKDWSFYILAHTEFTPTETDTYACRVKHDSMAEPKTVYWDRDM
chain 5: SIINFEKL

Variants of: B1
protocol-description: % of reporter cells activated (NFAT-GFP), raw; also: test concentration or dose not given here
conditions: with B2; scale: % of reporter cells activated
// classify: if (ratio to parent < 0.7) 1 (yes) else 0 (no)

    mutation_spec  category
 0    chain 5 E6H   1 (yes)
 1    chain 5 L8M    0 (no)
 2    chain 5 E6T    0 (no)
 3    chain 5 I3T   1 (yes)
 4    chain 5 S1A    0 (no)
 5    chain 5 N4P   1 (yes)
 6    chain 5 N4M   1 (yes)
 7    chain 5 L8Q    0 (no)
 8    chain 5 E6C    0 (no)
 9    chain 5 K7I    0 (no)
10    chain 5 I3W   1 (yes)
11    chain 5 K7C    0 (no)
12    chain 5 E6M    0 (no)
13    chain 5 I3F   1 (yes)
14    chain 5 E6G    0 (no)
15    chain 5 E6R   1 (yes)
16    chain 5 S1L    0 (no)
17    chain 5 S1C    0 (no)
18    chain 5 F5I    0 (no)
19    chain 5 K7W    0 (no)
